Kindly supply the reported IC50 values for the records listed here.
Target: JAK2 (Homo sapiens)
Construct: endogenous in cells
Sequence (O60674 whole entry): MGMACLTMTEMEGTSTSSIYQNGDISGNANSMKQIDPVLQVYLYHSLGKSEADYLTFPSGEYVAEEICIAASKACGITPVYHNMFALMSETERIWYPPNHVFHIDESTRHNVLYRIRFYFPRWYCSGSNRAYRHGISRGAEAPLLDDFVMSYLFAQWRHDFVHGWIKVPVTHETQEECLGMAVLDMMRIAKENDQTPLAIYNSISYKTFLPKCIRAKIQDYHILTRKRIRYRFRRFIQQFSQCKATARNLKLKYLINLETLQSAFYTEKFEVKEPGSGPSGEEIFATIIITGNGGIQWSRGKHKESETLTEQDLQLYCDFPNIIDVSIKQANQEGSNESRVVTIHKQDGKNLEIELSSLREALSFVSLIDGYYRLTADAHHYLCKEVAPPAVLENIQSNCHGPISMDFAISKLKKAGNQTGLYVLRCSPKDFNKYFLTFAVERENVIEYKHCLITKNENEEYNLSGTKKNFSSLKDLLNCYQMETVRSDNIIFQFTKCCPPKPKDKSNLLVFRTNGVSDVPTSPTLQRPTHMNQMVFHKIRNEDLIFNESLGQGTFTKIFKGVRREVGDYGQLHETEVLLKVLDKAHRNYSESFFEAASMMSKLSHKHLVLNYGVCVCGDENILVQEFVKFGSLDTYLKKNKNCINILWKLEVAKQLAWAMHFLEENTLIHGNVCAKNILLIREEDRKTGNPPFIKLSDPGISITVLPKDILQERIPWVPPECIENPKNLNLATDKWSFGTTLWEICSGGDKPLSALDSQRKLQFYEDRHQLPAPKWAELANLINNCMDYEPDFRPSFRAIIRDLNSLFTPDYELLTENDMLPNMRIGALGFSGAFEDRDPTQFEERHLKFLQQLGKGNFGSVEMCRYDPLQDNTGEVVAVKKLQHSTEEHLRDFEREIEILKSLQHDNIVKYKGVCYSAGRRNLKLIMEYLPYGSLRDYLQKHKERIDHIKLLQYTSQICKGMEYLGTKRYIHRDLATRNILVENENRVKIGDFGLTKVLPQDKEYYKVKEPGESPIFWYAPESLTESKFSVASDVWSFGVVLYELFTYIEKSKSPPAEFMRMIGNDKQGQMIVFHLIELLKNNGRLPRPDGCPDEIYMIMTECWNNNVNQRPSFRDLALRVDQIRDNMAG
Test: Kinobeads assay, JAK2 (competition binding in mixed Molt4/Ramos cell lysate, dot blot detection)
Settings: read-out: JAK2 Band (Kinobeads assay potency, IC50)
Description: The compounds of the present invention as described in the previous examples were tested in a Kinobeads™ assay as described for ZAP-70 (WO-A 2007/137867). […] Bound proteins were then eluted and the presence of TYK2 and JAK2 was detected and quantified using specific antibodies in a dot blot procedure and the Odyssey infrared detection system. Dose response curves for individual kinases were generated and IC50 values calculated. […]

>  <Smiles input>
CNS(=O)(=O)c1cccc(CNc2nc(Nc3cnn(C)c3)ncc2Cl)c1

>  <Assayed target>
JAK2 (Homo sapiens)

>  <IC50>
1000 to 10000 nM

$$$$
>  <Smiles input>
O=C(Cn1cc(Nc2nccc(NCc3c(F)cccc3Cl)n2)cn1)NCCF

>  <Assayed target>
JAK2 (Homo sapiens)

>  <IC50>
1000 to 10000 nM

$$$$
>  <Smiles input>
O=C(Cn1cc(Nc2ncc(F)c(NCc3c(F)cc(F)cc3F)n2)cn1)NCC(F)(F)F

>  <Assayed target>
JAK2 (Homo sapiens)

>  <IC50>
> 10000 nM

$$$$
>  <Smiles input>
CNC(=O)Cn1cc(Nc2ncc(C)c(NCc3cc(F)cc(F)c3)n2)cn1

>  <Assayed target>
JAK2 (Homo sapiens)

>  <IC50>
100 to 1000 nM

$$$$
>  <Smiles input>
Cn1cc(Cn2cc(Nc3ncc(Cl)c(NCc4c(F)cccc4F)n3)cn2)cn1

>  <Assayed target>
JAK2 (Homo sapiens)

>  <IC50>
1000 to 10000 nM

$$$$
>  <Smiles input>
NC(=O)Cn1cc(Nc2ncc(Cl)c(NCc3ccccc3)n2)cn1

>  <Assayed target>
JAK2 (Homo sapiens)

>  <IC50>
100 to 1000 nM

$$$$
>  <Smiles input>
Cc1cnc(Nc2cnn(CC(F)(F)F)c2)nc1NCc1cc(F)cc(F)c1

>  <Assayed target>
JAK2 (Homo sapiens)

>  <IC50>
1000 to 10000 nM

$$$$
>  <Smiles input>
CS(=O)(=O)c1cccc(CNc2nc(Nc3cnn(CCO)c3)ncc2Cl)c1

>  <Assayed target>
JAK2 (Homo sapiens)

>  <IC50>
1000 to 10000 nM

$$$$

Look at each molecule and report its IC50.
1. Cn1cc(Nc2ncc(Cl)c(NCc3c(F)ccc(F)c3F)n2)cn1
2. Cc1cnc(Nc2cnn(CC(=O)N(C)C)c2)nc1NCc1c(F)cc(F)cc1F
3. CNC(=O)Cn1cc(Nc2ncc(Cl)c(NCc3cc(F)cc(C(F)(F)F)c3)n2)cn1
4. O=C(Cn1cc(Nc2ncc(Cl)c(NCc3ccccc3)n2)cn1)N1CCC2(CC1)COC2
5. CC(C)(C)OC(=O)N1CCN(C(=O)Cn2cc(Nc3ncc(Cl)c(NCc4ccccc4)n3)cn2)CC1
6. COc1ccc(F)c(CNc2ccnc(Nc3cnn(CC(=O)N4CCOCC4)c3)n2)c1F
7. CN(C)CCNC(=O)Cn1cc(Nc2ncc(Cl)c(NCc3cccc(OCC#N)c3)n2)cn1
8. COc1ccc(F)c(CNc2ccnc(Nc3cnn(CC(=O)NCCF)c3)n2)c1F

RESULT:
1. 100 to 1000 nM
2. 100 to 1000 nM
3. 1000 to 10000 nM
4. 1000 to 10000 nM
5. > 10000 nM
6. 1000 to 10000 nM
7. 1000 to 10000 nM
8. 1000 to 10000 nM

// recorded IC50 for "Cc1cnc(Nc2cnn(CC(F)(F)F)c2)nc1NCc1cc(F)cc(F)c1F" : 1000 to 10000 nM
